Target: UniProt:Q72547
pIC50: −log10 of the molar value.
Would you mind labelling by pIC50? At or over 5 is satisfied, under is not satisfied.

[[record]]
sample_smiles = "CC(C)(C)NC(=O)COC(=O)c1ccc([N+](=O)[O-])s1"
system_tested = "UniProt:Q72547"
cat = "satisfied"

[[record]]
sample_smiles = "CCOC(=O)[C@H](C)NC(=O)c1ccc([N+](=O)[O-])o1"
system_tested = "UniProt:Q72547"
cat = "not satisfied"

[[record]]
sample_smiles = "CCOC(=O)[C@H](Cc1ccccc1)NC(=O)c1ccc([N+](=O)[O-])o1"
system_tested = "UniProt:Q72547"
cat = "not satisfied"

[[record]]
sample_smiles = "O=C(OCCc1ccc([N+](=O)[O-])cc1)c1ccc([N+](=O)[O-])o1"
system_tested = "UniProt:Q72547"
cat = "satisfied"

[[record]]
sample_smiles = "CC(C)(C)C(=O)COC(=O)c1ccc([N+](=O)[O-])o1"
system_tested = "UniProt:Q72547"
cat = "not satisfied"

[[record]]
sample_smiles = "CC(=O)COC(=O)c1ccc([N+](=O)[O-])o1"
system_tested = "UniProt:Q72547"
cat = "satisfied"


###

Assay: Cytotoxicity against human 293T cells after 3 days by MTT assay
Type: cell-based, HEK-293T
Conditions: 293T cells
REPORTED_ENDPOINT: CC50 at 72 h

[[record]]
sample_smiles = "CC(C)(NC(=O)COC(=O)c1ccc([N+](=O)[O-])o1)c1ccccc1"
recorded_result = "> 100 µM"

[[record]]
sample_smiles = "CC(C)(C)N(Cc1ccccc1C(F)(F)F)C(=O)COC(=O)c1ccc([N+](=O)[O-])o1"
recorded_result = "65 µM"

[[record]]
sample_smiles = "CC(C)OC(=O)COC(=O)c1ccc([N+](=O)[O-])o1"
recorded_result = "> 100 µM"

[[record]]
sample_smiles = "CC(C)(C)N(Cc1cccc(C(F)(F)F)c1)C(=O)COC(=O)c1ccc([N+](=O)[O-])o1"
recorded_result = "68 µM"

[[record]]
sample_smiles = "CC(C)(C)N(Cc1ccc([N+](=O)[O-])cc1)C(=O)COC(=O)c1ccc([N+](=O)[O-])o1"
recorded_result = "> 100 µM"


###

Biological target: Human immunodeficiency virus type 1 reverse transcriptase (Human immunodeficiency virus 1)
pIC50: −log10 of the molar value.
pIC50 reference
REPORTED_ENDPOINT: pIC50

[[record]]
sample_smiles = "CC(C)(C)N(Cc1ccc(OCc2ccccc2)cc1)C(=O)COC(=O)c1ccc([N+](=O)[O-])o1"
reported_endpoint = "pIC50"
value_qualifier = "<"
recorded_result = 4.30

[[record]]
sample_smiles = "CN(OC(=O)c1ccc([N+](=O)[O-])o1)C(=O)c1ccc([N+](=O)[O-])o1"
reported_endpoint = "pIC50"
value_qualifier = "="
recorded_result = 5.57

[[record]]
sample_smiles = "CCOC(=O)[C@H](CC(C)C)NC(=O)c1ccc([N+](=O)[O-])o1"
reported_endpoint = "pIC50"
value_qualifier = "<"
recorded_result = 4.30

[[record]]
sample_smiles = "COC(=O)CNC(=O)c1ccc([N+](=O)[O-])o1"
reported_endpoint = "pIC50"
value_qualifier = "<"
recorded_result = 4.30

[[record]]
sample_smiles = "CC(C)(C)NC(=O)COC(=O)c1ccc(-c2ccc([N+](=O)[O-])cc2)o1"
reported_endpoint = "pIC50"
value_qualifier = "<"
recorded_result = 4.30

[[record]]
sample_smiles = "CC(C)(C)N(Cc1cccc([N+](=O)[O-])c1)C(=O)COC(=O)c1ccc([N+](=O)[O-])o1"
reported_endpoint = "pIC50"
value_qualifier = "="
recorded_result = 5.01

[[record]]
sample_smiles = "CCOC(=O)[C@H](Cc1ccc(O)cc1)NC(=O)c1ccc([N+](=O)[O-])o1"
reported_endpoint = "pIC50"
value_qualifier = "<"
recorded_result = 4.30

[[record]]
sample_smiles = "CC(=O)Oc1ccc(CN(C(=O)COC(=O)c2ccc([N+](=O)[O-])o2)C(C)(C)C)cc1"
reported_endpoint = "pIC50"
value_qualifier = "="
recorded_result = 5.06

[[record]]
sample_smiles = "CC(C)(C)N(CCCc1ccccc1)C(=O)COC(=O)c1ccc([N+](=O)[O-])o1"
reported_endpoint = "pIC50"
value_qualifier = "<"
recorded_result = 4.30

[[record]]
sample_smiles = "CCC(C)(C)NC(=O)COC(=O)c1ccc([N+](=O)[O-])s1"
reported_endpoint = "pIC50"
value_qualifier = "="
recorded_result = 5.24

